The reported numbers originate from PubChem BioAssay.

Assay: S. cerevisiae growth inhibition in restrictive medium, OD615, pilot screen, restrictive growth control, yeast lifespan reduction project (AID 706);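 note: modified DeaD lifespan yeast strain shifted to restrictive glucose medium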
Settings: OD615, 48 h, at 10 µM, hits give high values
Measure name: growth inhibition (%)
Report only the number, with the unit % understood.

In the examples that follow, each entry is paired with its recorded growth inhibition.
Compound: CC(Cc1c[nH]c2ccccc12)NC(=O)C1CCCNC1=O (stereo unspecified)
growth inhibition (%): 8.45

Compound: COc1cc(NC(=O)CC(C)C)ccc1NC(=O)c1ccco1
growth inhibition (%): -1.97

Compound: COc1ccc(C)cc1S(=O)(=O)N1CCN(S(=O)(=O)c2cc(C)ccc2OC)CC1
growth inhibition (%): -26.2

Compound: Nc1nc(SCC(=O)N2CCCc3ccccc32)n(-c2ccccc2)n1
growth inhibition (%): 0.05

Compound: O=C(CCCn1c(=O)[nH]c2ccsc2c1=O)N1CCN(c2ccccn2)CC1
growth inhibition (%): 2.48

Request: So what's the measured growth inhibition for this one? "CCOC(=O)N1CCN(C(=O)CSc2nnc(COc3ccccc3)o2)CC1"
Result: 1.67

Request: Entry "c1ccc(C(Cc2nc(-c3ccccn3)no2)c2ccccc2)cc1" please
Result: 12.9

Request: Would you mind doing "CCN1CCN(C(=O)c2cn(CC)c3ccc(S(=O)(=O)N(C)C)cc3c2=O)CC1" as well?
Result: -18

Request: Now consider "COc1ccc(-c2nc(C)c(C(C)=O)n2O)cc1OC" and answer again.
Result: 6.06

Request: Now the compound O=C(CSc1nnc(Cn2c(=O)sc3ccccc32)n1-c1ccccc1)NCC1CCCO1 (stereo unspecified)
Result: 10.2

Request: Then this compound: "COc1cc2c(cc1OC)-c1nnc(-c3cccs3)n1C(C)(C)C2"
Result: -8.72
